- test-protocol: Encapsulation rate of LNP RNA (Qubit RNA HS Assay kit)
- Type: physicochemical
- experimental-context: LNPs, Formulation Method 1
parameter: Encapsulation rate (%)

{"columns": ["compound-structure-string", "unit-spec", "Encapsulation rate"],
 "data": [
  ["CCCCCCCCCCCCCCCCSc1nc(NCCCCCCCCC)nc(NCCN2CCCC2)n1", "%", 98.9],
  ["CCCCCCCC/C=C\\CCCCCCCCSc1nc(OCCN2CCCC2)nc(SCCCCCCCCC)n1", "%", 99.6],
  ["CCCCCCCC/C=C\\CCCCCCCCSc1nc(OCC2CCN(C)CC2)nc(SCCCCCCCCC)n1", "%", 99.2],
  ["CCCCCCCCCCCCSc1nc(NCCCN2CCOCC2)nc(SCCCCCCCCCCC)n1", "%", 98.3],
  ["CCCCCCCCCCCCCCCCSc1nc(NCC2CCN(C)CC2)nc(SCCCCCCCCCC)n1", "%", 99.5],
  ["CCCCCCCCCCCCCNc1nc(NCCCN(C)C)nc(SCCCCCCCCCCCC)n1", "%", 99.0],
  ["CCCCCCCCCCCCCCCCCCSc1nc(NCCN2CCCC2)nc(SCCCCCCC)n1", "%", 99.5],
  ["CCCCCCCCCCCCCCCCSc1nc(NCCCCCCCC)nc(NCC2CCN(C)CC2)n1", "%", 97.2],
  ["CCCCCCCCCCCCCCCCSc1nc(NCCCN2CCN(C)CC2)nc(SCCCCCCCC)n1", "%", 98.7]
]}

###

- Tested on: HEK293 cells
- test-protocol: Preliminary screening as mRNA vectors, EGFP mRNA transfection of HEK293 cells
- Format: cell-based
- experimental-context: EGFP mRNA 50 ng per well, 96-well plates; percentage of GFP fluorescent cells relative to total number of cells (Hoechst)
parameter: Absolute mRNA transfection efficiency in HEK293 cells (%)
Provide the reading as a plain figure in %.

Record excerpt, results attached:
{"columns": ["molecule", "measured-number"],
 "data": [
  ["CCCCCCCCCCCCCCCNc1nc(NCCCN2CCOCC2)nc(SCCCCCCCCC)n1 [Compound D8S9N15]", 7.2],
  ["CCCCCCCSc1nc(NCCN2CCOCC2)nc(SCCCCCCC)n1 [Compound D2S7S7]", 4.9],
  ["CCCCCCCCCCCCNc1nc(NCC2CCN(C)CC2)nc(SCCCCCCCCCCCC)n1 [Compound D10S12N12]", 31.5]
]}

HEK293 cells data for CCCCCCCCCCCCCCCCNc1nc(NCCN2CCCCC2)nc(SCCCCCCCCCC)n1 [Compound D4S10N16] ; its Absolute mRNA transfection efficiency in HEK293 cells: 14.7

HEK293 cells data for CCCCCCCCCCCCSc1nc(NCCCCCCCCCCC)nc(NCCN2CCCCC2)n1 [Compound D4S12N11] ; its Absolute mRNA transfection efficiency in HEK293 cells: 3.7

HEK293 cells data for CCCCCCCCCCCCCCCCNc1nc(NCCN(CC)CC)nc(SCCCCCCC)n1 [Compound D7S7N16] ; its Absolute mRNA transfection efficiency in HEK293 cells: 12.8

HEK293 cells data for CCCCCCCCCCCCCCSc1nc(NCCCCCCC)nc(NCCN2CCCC2)n1 [Compound D3S14N7] ; its Absolute mRNA transfection efficiency in HEK293 cells: 64.2

HEK293 cells data for CCCCCCCCCCCCCCCCSc1nc(NCCN2CCCC2)nc(SCCCCCC)n1 [Compound D3S6S16] ; its Absolute mRNA transfection efficiency in HEK293 cells: 16.9

###

Collected Absolute DNA transfection efficiency in Hela cells values appear next to each entry.
- System: Hela cells
- test-protocol: Transfection of Hela cell line, DNA vectors
- Format: cell-based
- experimental-context: 75 ng plasmid DNA, GFP cells / total cells
Provide the reading as a plain figure in %.

Record excerpt, results attached:
{"columns": ["compound-structure-string", "measured-number"],
 "data": [
  ["CCCCCCCCCCCSc1nc(NCCCCCCCCC)nc(NCCN(C)C)n1", 6.0],
  ["CCCCCCCCCCCSc1nc(NCCCCCCCC)nc(NCC2CCN(C)CC2)n1", 16.7],
  ["CCCCCCCCCCCNc1nc(NCCN2CCOCC2)nc(SCCCCCCCCC)n1", 8.2]
]}

Quick note, Absolute DNA transfection efficiency in Hela cells for CCCCCCCCCCCSc1nc(NCCCCCCC)nc(NCCN(CC)CC)n1 landed at 5.8

Quick note, Absolute DNA transfection efficiency in Hela cells for CCCCCCCCCCCCNc1nc(NCCN2CCOCC2)nc(SCCCCCCCCC)n1 landed at 6.5

Quick note, Absolute DNA transfection efficiency in Hela cells for CCCCCCCCCCCCSc1nc(NCCN(C)C)nc(SCCCCCCC)n1 landed at 4.2

Quick note, Absolute DNA transfection efficiency in Hela cells for CCCCCCCCCCCCCNc1nc(NCC2CCN(C)CC2)nc(SCCCCCCCC)n1 landed at 9.5

Quick note, Absolute DNA transfection efficiency in Hela cells for CCCCCCCCCCCSc1nc(NCCN2CCOCC2)nc(SCCCCCCCC)n1 landed at 8.9

Quick note, Absolute DNA transfection efficiency in Hela cells for CCCCCCCCCCCSc1nc(NCCCN2CCN(C)CC2)nc(SCCCCCCC)n1 landed at 12.9

Quick note, Absolute DNA transfection efficiency in Hela cells for CCCCCCCCCCCSc1nc(NCC2CCN(C)CC2)nc(SCCCCCCC)n1 landed at 19.7

Quick note, Absolute DNA transfection efficiency in Hela cells for CCCCCCCCCCCNc1nc(NCCCN2CCOCC2)nc(SCCCCCCCCC)n1 landed at 13.9

Quick note, Absolute DNA transfection efficiency in Hela cells for CCCCCCCCCCCCSc1nc(NCCN(C)C)nc(SCCCCCCCCC)n1 landed at 7.9

Quick note, Absolute DNA transfection efficiency in Hela cells for CCCCCCCCCCCCSc1nc(NCCCN2CCOCC2)nc(SCCCCCCCC)n1 landed at 17.2

###

- Test system: HEK293 cells
- test-protocol: Preliminary screening as DNA vectors, GFP transfection of HEK293 cells
- Format: cell-based
- experimental-context: amino lipid/DOPE liposome with 75 ng plasmid DNA (psin-EGFP-IRES-Puro); number of GFP-expressing cells divided by total nuclei (Hoechst)
Collected Absolute DNA transfection efficiency in HEK293 cells values appear next to each entry.
Provide the reading as a plain figure in %.

Record excerpt, results attached:
{"columns": ["compound", "system-under-test", "measured-number"],
 "data": [
  ["CCCCCCCCCCCCCCCCCCNc1nc(NCCCN2CCOCC2)nc(SCCCCCC)n1", "HEK293 cells", 8.1],
  ["CCCCCCCCCCSc1nc(NCCCCCCC)nc(NCCN2CCN(C)CC2)n1", "HEK293 cells", 7.5],
  ["CCCCCCCCCCCCCCCSc1nc(NCCCCCCCCCCC)nc(NCCN(C)C)n1 [S15N11 D1]", "HEK293 cells", 12.9],
  ["CCCCCCCCCCCCCCCNc1nc(NCCN2CCOCC2)nc(SCCCCCCCCCCCCCC)n1 [S14N15 D2]", "HEK293 cells", 0.1],
  ["CCCCCCCCCNc1nc(NCC2CCN(C)CC2)nc(SCCCCCCC)n1", "HEK293 cells", 15.0]
]}

Quick note, Absolute DNA transfection efficiency in HEK293 cells for CCCCCCCCCCCCCCCCCCSc1nc(NCCCCCCCCCCCCC)nc(NCCCN(C)C)n1 landed at 2.6

Quick note, Absolute DNA transfection efficiency in HEK293 cells for CCCCCCCCCCCCCNc1nc(NCCCN2CCN(C)CC2)nc(SCCCCCCCCCCCC)n1 landed at 2.1

Quick note, Absolute DNA transfection efficiency in HEK293 cells for CCCCCCCCCCCNc1nc(NCCN2CCOCC2)nc(SCCCCCCCC)n1 [S8N11 D2] landed at 25.4

Quick note, Absolute DNA transfection efficiency in HEK293 cells for CCCCCCCCCCCCCCCCCCNc1nc(NCCN2CCN(C)CC2)nc(SCCCCCCC)n1 landed at 8.2

Quick note, Absolute DNA transfection efficiency in HEK293 cells for CCCCCCCCCCCCCCCCCCNc1nc(NCCN2CCCCC2)nc(SCCCCCC)n1 landed at 3.5

Quick note, Absolute DNA transfection efficiency in HEK293 cells for CCCCCCCCCCCCCCCSc1nc(NCCCCCCCCCCC)nc(NCCCN2CCN(C)CC2)n1 landed at 11.9

Quick note, Absolute DNA transfection efficiency in HEK293 cells for CCCCCCCCCCCCCCCCNc1nc(NCC2CCN(C)CC2)nc(SCCCCCCCCCCCCCCCC)n1 landed at 0.2

Quick note, Absolute DNA transfection efficiency in HEK293 cells for CCCCCCCCSc1nc(NCCCCCC)nc(NCCN2CCCCC2)n1 landed at 2.6

Quick note, Absolute DNA transfection efficiency in HEK293 cells for CCCCCCCCCCCCCCCCCCNc1nc(NCCN(C)C)nc(SCCCCCCCCCCCCCCCCCC)n1 [S18N18 D1] landed at 0.1

Quick note, Absolute DNA transfection efficiency in HEK293 cells for CCCCCCCCCNc1nc(NCCN(C)C)nc(SCCCCCCC)n1 [S7N9 D1] landed at 28.8
